Origin of values: patent US11306081B2

As a worked illustration, we turn to log10 IC50 data collected for ROCK2 (Homo sapiens (Human), UniProt O75116).
Please be aware that the numbers have been log10-transformed from IC50 in nM.

Check out these entries, answers already filled in.
1) Cc1cccc(Nc2ncnc3ccc(NC(=O)Cc4ccc(Oc5ncccc5C(N)=O)cc4)cc23)c1 [Example 077]    1.62
2) Cc1sc(NC(=O)Cc2ccc(Oc3ncccc3C(N)=O)c(Cl)c2)nc1-c1cnn(C)c1 [Example 104]    0.85
3) NC(=O)c1cccnc1Oc1ccc(CC(=O)Nc2nc(C3CCC3)c(-c3ccccn3)s2)cc1Cl [Example 023]    0.60
4) NC(=O)c1cccnc1Oc1ccc(CC(=O)Nc2nc3cc(Br)ccn3n2)cc1F [Example 134]    1.64
5) Cc1sc(NC(=O)Cc2ccc(Oc3ncccc3C(N)=O)c(F)c2)nc1-c1ccc(=O)n(C(F)F)c1 [Example 021]    1.72
6) COc1ncc(-c2nc(NC(=O)Cc3ccc(Oc4ncccc4C(N)=O)c(F)c3)sc2C)cn1 [Example 040]    2.00
7) NC(=O)c1cccnc1Oc1ccc(CC(=O)Nc2cn3cc(C(F)(F)F)ccc3n2)cc1F [Example 133]    2.30
8) NC(=O)c1cccnc1Oc1ccc(CC(=O)Nc2nc3cc(OCc4ccccc4)ccn3n2)cc1F [Example 143]    0.78

Give measured log10 IC50 for every item shown.
1. Cc1nc2sccn2c1-c1csc(NC(=O)Cc2ccc(Oc3ncccc3C(N)=O)c(Cl)c2)n1 [Example 081]
2. Cc1sc(NC(=O)Cc2ccc(Oc3ncccc3C(N)=O)c(F)c2)nc1-c1cncnc1 [Example 041]
3. CC(C)(O)COc1ccc2sc(NC(=O)Cc3ccc(Oc4ncccc4C(N)=O)cc3)nc2c1 [Example 107]
4. CC(C)(O)COc1ccc2sc(NC(=O)Cc3ccc(Oc4ncccc4C(N)=O)c(Cl)c3)nc2c1 [Example 112]
5. COc1cc(CC(=O)Nc2nc3cc(OCC(C)(C)O)ccc3s2)ccc1Oc1ncccc1C(N)=O [Example 118]
6. Cc1sc(NC(=O)Cc2ccc(Oc3ncccc3C(N)=O)c(Cl)c2)nc1-c1ccccc1F [Example 080]

[reply]
[1.77, 2.24, 1.46, 0.78, 2.81, 1.18]

Below is a list of compounds. For each, state its recorded log10 IC50.
1. NC(=O)c1cccnc1Oc1ccc(CC(=O)Nc2nc3c(F)cccc3n2CC(F)F)cc1Cl [Example 173]
2. NC(=O)c1cccnc1Oc1ccc(CC(=O)Nc2nc3cc(-c4c[nH]nc4C(F)(F)F)ccc3s2)cc1F [Example 032]

[reply]
1: 0.90; 2: 1.95

---

- MEASURED_TARGET: ROCK2 (Homo sapiens (Human))
- Sequence (O75116 whole entry, species assumed): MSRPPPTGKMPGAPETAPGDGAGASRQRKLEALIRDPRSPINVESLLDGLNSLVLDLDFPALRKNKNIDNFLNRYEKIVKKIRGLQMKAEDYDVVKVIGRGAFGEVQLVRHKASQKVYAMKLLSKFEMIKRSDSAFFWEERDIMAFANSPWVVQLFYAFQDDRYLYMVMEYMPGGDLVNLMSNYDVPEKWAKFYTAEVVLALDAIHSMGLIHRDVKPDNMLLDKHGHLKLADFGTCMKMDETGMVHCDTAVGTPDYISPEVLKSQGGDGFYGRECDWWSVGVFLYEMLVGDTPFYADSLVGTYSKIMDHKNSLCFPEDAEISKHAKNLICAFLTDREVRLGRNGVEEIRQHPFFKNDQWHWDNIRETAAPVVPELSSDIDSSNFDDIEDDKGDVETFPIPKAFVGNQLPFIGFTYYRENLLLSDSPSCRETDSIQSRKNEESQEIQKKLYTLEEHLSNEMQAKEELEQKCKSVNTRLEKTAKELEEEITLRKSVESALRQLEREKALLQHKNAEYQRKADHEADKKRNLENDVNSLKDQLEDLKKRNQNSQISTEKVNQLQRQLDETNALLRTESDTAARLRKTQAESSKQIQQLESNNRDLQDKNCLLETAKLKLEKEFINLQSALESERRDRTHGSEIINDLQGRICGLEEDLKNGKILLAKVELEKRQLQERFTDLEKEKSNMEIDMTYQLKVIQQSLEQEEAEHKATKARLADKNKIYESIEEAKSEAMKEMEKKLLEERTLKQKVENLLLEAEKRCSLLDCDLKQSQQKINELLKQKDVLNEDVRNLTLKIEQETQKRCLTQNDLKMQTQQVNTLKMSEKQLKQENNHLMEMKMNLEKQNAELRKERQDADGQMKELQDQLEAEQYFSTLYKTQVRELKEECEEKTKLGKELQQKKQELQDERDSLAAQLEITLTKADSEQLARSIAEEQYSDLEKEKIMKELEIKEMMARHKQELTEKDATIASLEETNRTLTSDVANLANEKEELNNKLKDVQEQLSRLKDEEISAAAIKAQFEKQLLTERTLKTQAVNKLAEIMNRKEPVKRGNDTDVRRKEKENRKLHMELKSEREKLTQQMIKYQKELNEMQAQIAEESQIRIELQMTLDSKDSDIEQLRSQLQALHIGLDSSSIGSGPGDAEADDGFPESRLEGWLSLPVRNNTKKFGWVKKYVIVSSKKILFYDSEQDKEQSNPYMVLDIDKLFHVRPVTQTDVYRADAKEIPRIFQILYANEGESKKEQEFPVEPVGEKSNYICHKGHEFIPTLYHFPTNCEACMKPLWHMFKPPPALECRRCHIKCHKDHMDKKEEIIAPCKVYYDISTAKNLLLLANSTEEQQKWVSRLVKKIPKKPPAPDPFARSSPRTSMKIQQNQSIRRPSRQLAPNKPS
Note that class boundaries on IC50 are low class = under 40 nM, middle class = from 40 nM up to 100 nM, high class = 100 nM and over

1) CP(C)(=O)c1ccc2c(c1)nc(NC(=O)Cc1ccc(Oc3ncccc3C(N)=O)c(F)c1)n2CC(F)(F)F    high class
2) Cc1sc(NC(=O)Cc2ccc(Oc3ncccc3C(N)=O)cc2)nc1-c1ccccc1    middle class
3) CC(C)(O)COc1ccc2c(c1)N(C(=O)Cc1ccc(Oc3ncccc3C(N)=O)c(F)c1)CC2    high class
4) COc1cccn2nc(NC(=O)Cc3ccc(Oc4ncccc4C(N)=O)c(Cl)c3)nc12    low class
5) NC(=O)c1cccnc1Oc1ccc(CC(=O)Nc2nc3cc(-c4cn[nH]c4)ccc3s2)cc1F    low class
6) NC(=O)c1cccnc1Oc1ccc(CC(=O)Nc2nc3c(F)cccc3n2CC(F)F)cc1F    low class

[ask] Categorize the following entry: Cc1cccc(-c2nc(NC(=O)Cc3ccc(Oc4ncccc4C(N)=O)c(F)c3)sc2C)n1
[reply] middle class

[ask] Into which bin does this compound go? NC(=O)c1cccnc1Oc1ccc(CC(=O)Nc2nc(-c3cc[nH]c(=O)c3)cs2)cc1F
[reply] high class

[ask] Consider NC(=O)c1cccnc1Oc1ccc(CC(=O)Nc2nc3ccc(C(F)(F)F)cc3n2CC2CC2)cc1F . To which IC50 class does it belong?
[reply] middle class

[ask] Assign a bin to N#Cc1ccc2[nH]c(NC(=O)Cc3ccc(Oc4ncccc4C(N)=O)cc3)nc2c1
[reply] high class
